Assay read-out IC50 on Ubiquitin carboxyl-terminal hydrolase 28 (Homo sapiens); records merged from the literature.

Some compounds with known IC50 results, for comparison:
compound=Cc1oc(Cc2cccc(Cl)c2)nc1-c1ccc(COc2ccc(C(=O)N3CCC(Cc4ncc[nH]4)CC3)cc2)cc1 subject_of_test="Ubiquitin carboxyl-terminal hydrolase 28 (Homo sapiens)" data_value="< 0.05 µM"
compound=O=c1ccc(-c2noc(Cc3ccc(Cl)cc3)n2)c[nH]1 subject_of_test="Ubiquitin carboxyl-terminal hydrolase 28 (Homo sapiens)" data_value="1 to 10 µM"
compound=COc1ccc(CCNc2ncnc3c2sc2ncccc23)cc1OC subject_of_test="Ubiquitin carboxyl-terminal hydrolase 28 (Homo sapiens)" data_value="1 to 10 µM"

Ubiquitin carboxyl-terminal hydrolase 28 (Homo sapiens) IC50 of `Clc1ccc(-c2noc(Cc3ccccc3)n2)cn1` is < 1 µM

Ubiquitin carboxyl-terminal hydrolase 28 (Homo sapiens) IC50 of `Clc1ccc(-c2noc(Cc3cccc4ccccc34)n2)cn1` is 1 to 10 µM

Ubiquitin carboxyl-terminal hydrolase 28 (Homo sapiens) IC50 of `CN[C@H]1CCCN(C(=O)c2ccc(COc3ccc(-c4nc(Cc5cccc(Cl)c5)oc4C)cc3)nc2)C1` is < 0.05 µM

Ubiquitin carboxyl-terminal hydrolase 28 (Homo sapiens) IC50 of `Cc1oc(Cc2cccc(Cl)c2)nc1-c1ccc(OCc2ccc(C(=O)N(C)C)nn2)cc1` is < 0.05 µM

Ubiquitin carboxyl-terminal hydrolase 28 (Homo sapiens) IC50 of `Cc1cccc(Cc2noc(-c3ccc(OCC(=O)N[C@@H]4C[C@@H](C)N(C#N)C4)cc3)n2)c1` is 0.05 to 0.5 µM
